test system: Hepatitis C virus; test: Antiviral activity against HCV genotype 1b Con1 bicistronic replicon infected in human Huh7 cells assessed as replicon RNA expression measured 3 days post dose by real time RT-PCR analysis; type: functional, organism-based, Hepacivirus hominis; details: isolate Con1, Huh-7, 72 h
Examples of molecules with documented log10 of EC50 follow.
Values are log10 of EC50 in nM.

# count of solved cases: 7
| smiles notation | reported |
| --- | --- |
| CCOc1cc2c(cc1F)c(C(N)=O)c(-c1ccc(NS(=O)(=O)C(C)(C)C)cc1)n2C1CCCC1 | 2.18 |
| CC(C)(C)S(=O)(=O)Nc1ccc(-c2c(C(N)=O)c3cc(F)c(OC(F)F)cc3n2C2CCCCC2)cc1F | 0.48 |
| CCc1cc2c(cc1F)c(C(N)=O)c(-c1ccc(NS(=O)(=O)C(C)(C)C)cn1)n2C1CCCCC1 | 1.83 |
| CC(C)(C)S(=O)(=O)Nc1ccc(-c2c(C(N)=O)c3cc(F)c(OC(F)F)cc3n2C2CCCCC2)cc1Cl | 2.48 |
| CCc1cc2c(cc1F)c(C(N)=O)c(-c1ccc(NS(=O)(=O)C(C)(C)C)cc1)n2C1CCCC1 | 0.85 |
| CC(C)(C)S(=O)(=O)Nc1ccc(-c2c(C(N)=O)c3cc(F)c(OC(F)F)cc3n2C2CCCCC2)c(F)c1 | 0.30 |
| Cc1cc(-c2c(C(N)=O)c3cc(F)c(OC(F)F)cc3n2-c2ccccc2)ccc1NS(=O)(=O)C(C)(C)C | 2.08 |

Now consider the entry below.
Give recorded log10 of EC50. `Cc1cc(NS(=O)(=O)C(C)(C)C)ccc1-c1c(C(N)=O)c2cc(F)c(OC(F)F)cc2n1C1CCCCC1`
1.00

Taken from ChEMBL document CHEMBL3751735.
